Data credit: patent US20240270857A1

# target entity: T1, IL-36R naturally expressed on OVCAR8 cells and on normal human epidermal keratinocytes (NHK cells) (human, UniProt Q9HB29 20-575)
# T1 sequence (looked up): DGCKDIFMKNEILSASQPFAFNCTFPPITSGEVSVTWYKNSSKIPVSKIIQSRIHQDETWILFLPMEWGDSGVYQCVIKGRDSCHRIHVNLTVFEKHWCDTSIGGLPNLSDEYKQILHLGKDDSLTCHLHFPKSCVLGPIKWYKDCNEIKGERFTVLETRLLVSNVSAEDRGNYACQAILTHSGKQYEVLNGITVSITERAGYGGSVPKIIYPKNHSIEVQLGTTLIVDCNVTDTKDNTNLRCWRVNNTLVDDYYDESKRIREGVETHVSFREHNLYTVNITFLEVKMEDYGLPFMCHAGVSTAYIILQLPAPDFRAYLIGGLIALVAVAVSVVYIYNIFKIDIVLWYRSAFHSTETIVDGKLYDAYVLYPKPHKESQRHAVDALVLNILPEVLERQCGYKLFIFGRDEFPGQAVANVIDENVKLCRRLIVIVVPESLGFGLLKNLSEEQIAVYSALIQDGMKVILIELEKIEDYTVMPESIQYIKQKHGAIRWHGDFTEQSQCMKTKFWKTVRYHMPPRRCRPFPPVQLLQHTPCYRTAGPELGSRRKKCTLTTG
# assay overview: cell-based or functional assay
Below is a list of entries, each paired with its recorded Maximum inhibition rate %; hIL36γ; IL-8 production value.
measurement kind: Maximum inhibition rate %; hIL36γ; IL-8 production (%)

INSERT INTO assay_data (binder, unit_descriptor, val) VALUES
  ('hz84C4-2.3 (antibody, human IgG4 S228P, kappa, V domains shown, Humanized, human IgG4 / kappa) VH: QVQLVQSGAEVKKPGASVKVSCKASGYFFTSYWMNWVRQAPGQGLEWMGMIYPYDSETRYAQKFQGRVTMTVDKSTSTVYMELSSLRSEDTAVYYCASSTTAFAYWGQGTLVTVSS VL: DIQMTQSPSSLSASVGDRVTITCRASQDIGNALNWLQQKPGKAPKRLIYATSSLDPGVPSRFSGSRSGTDYTLTISSLQPEDFATYYCLQYASSPYTFGQGTKVEIKR', '%', 57),
  ('hz84C4-2.5 (antibody, human IgG4 S228P, kappa, V domains shown, Humanized, human IgG4 / kappa) VH: QVQLVQSGAEVKKPGASVKVSCKVSGYFFTSYWMNWVNQAPGQGLEWMGMIHPYDSETRLAQKFKGRVTMTVDKSTSTVYMELSSLRSEDTAVYYCASSTTAFAYWGQGTLVTVSS VL: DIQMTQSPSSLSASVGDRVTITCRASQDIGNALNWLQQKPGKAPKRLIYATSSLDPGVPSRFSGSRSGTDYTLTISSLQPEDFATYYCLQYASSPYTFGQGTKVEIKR', '%', 103),
  ('hz84C4-1.3 (antibody, human IgG4 S228P, kappa, V domains shown, Humanized, human IgG4 / kappa) VH: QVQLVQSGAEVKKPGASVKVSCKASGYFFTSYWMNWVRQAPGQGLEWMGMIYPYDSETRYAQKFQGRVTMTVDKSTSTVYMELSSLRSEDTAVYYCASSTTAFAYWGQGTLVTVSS VL: DIQMTQSPSSLSASVGDRVTITCRASQDIGNALNWYQQKPGKAPKRLIYATSSLDPGVPSRFSGSRSGTDFTLTISSLQPEDFATYYCLQYASSPYTFGQGTKVEIKR', '%', 57.5);
